Provenance of the data: PubChem BioAssay (NCI)

# assay-remarks: NCI Yeast Anticancer Drug Screen. Data for the sgs1 mgt1 strain (AID 161)
# particulars: S. cerevisiae sgs1 mgt1 strain, at 50.0 µM (retest, dose inferred, filed as 5.0)
This is part of a sample that, as a whole, favours compounds with a hit. Of some 79,000 tested, about 15% had one in any assay. Activity calls are given as the source filed them. Cut-off read from the data, not from the text of the source: active = growth inhibition above about 70%; inactive = the rest.
Returns: one label drawn from active, inactive

Cc1ccccc1NC(=O)Cc1csc(N/N=C2\NC(=O)/C(=C/c3cccc([N+](=O)[O-])c3)S2)n1 inactive
C=C(C)[C@@H]1CCc2c(O)c(O)c(=O)cc(C)c2C1 active
OCCNCCOc1ccc(/C(=C(/Cl)c2ccccc2)c2ccccc2)cc1 active
CN=C(N)N/N=C(\C)c1ccc2oc3ccc(/C(C)=N/NC(N)=NC)cc3c2c1 active

Switching to the query record.
Problem: Any idea what this test logged for `Clc1cc(Cc2ccc(N=C/C=C/c3ccccc3)c(Cl)c2)ccc1N=C/C=C\c1ccccc1` ?
Result: active
